The measurements presented in this section are drawn from ChEMBL document CHEMBL1201862.

For each entry below, report its GI50 value.
System: SF-539
experiment_summary: NCI tumour cell line growth inhibition, 48 h
Activity calls are given as the source filed them. No stated cut-off is given here; in the data, active = GI50 up to about 1.1 µM and inactive = higher.

Item: "CCCCCCCCCCCCCCCC[N+](C)(C)CCl" Test system: SF-539 Read-out: GI50 Value: ?
2.4 µM (inactive)

Entry to check: CC(=O)OCC1OC(n2c(=O)[nH]c(=O)c3sccc32)C(Br)C1OC(C)=O (centres undefined)
> 100 µM (inactive)

Entry to check: "CC(=O)O[C@H]1C[C@H]2[C@@H]([C@H](OC(C)=O)C[C@@H]3CC4(CC[C@@]32C)OOC2(CCCCC2)OO4)[C@@H]2CC[C@H]([C@H](C)CCC(=O)O)[C@@]12C"
7.85 µM (inactive)

Entry to check: Cc1cccc(NC(=O)/C(=N\N)C(c2cnc3ccc([N+](=O)[O-])cc3n2)[N+](=O)[O-])c1C (centres undefined)
> 100 µM (inactive)

Entry to check: "CS(=O)(=O)N(CC(=O)O)Cc1ccccc1"
> 100 µM (inactive)

Entry to check: "Cc1c(C(=O)OCc2ccccc2)[n+]([O-])c2cc(F)c(F)cc2[n+]1[O-]"
2.52 µM (inactive)

Entry to check: COc1ccc(-n2c(Cn3nnc(-c4cccnc4)n3)nn(C3OC(COC(=O)c4ccccc4)C(OC(=O)c4ccccc4)C3OC(=O)c3ccccc3)c2=S)cc1 (centres undefined)
> 100 µM (inactive)

Entry to check: "O=C(OC[C@H]1C[C@H]2C(=O)CCC[C@H]2O1)c1ccccc1"
> 100 µM (inactive)

Entry to check: "CC(=O)Nc1ccc(-c2cc(C(=O)O)c3cc4ccccc4cc3n2)cc1"
> 100 µM (inactive)

Entry to check: "CC(=O)/C=C1\CC(=O)Nc2ccccc2N1"
> 100 µM (inactive)

Entry to check: "CCCC(=O)NC1=C(Cl)C(=O)c2ccccc2C1=O"
2.45 µM (inactive)

Entry to check: "COc1ccc(/C(Nc2ccccc2)=C(\CCl)c2ccccc2)cc1OC"
> 100 µM (inactive)

Entry to check: COC(=O)c1cccc(C)c1C1CN=NC12Cc1c(ccc(C)c1C)C2=O (centres undefined)
> 100 µM (inactive)

Entry to check: "COCCCNc1nc(N)c(C#N)c(C#N)c1C#N"
> 10 µM (inactive)

---

System: MOLT-4
experiment_summary: NCI tumour cell line growth inhibition, 48 h
The source made the active and inactive calls. Cut-off read from the data, not from the text of the source: active = GI50 up to about 1.1 µM and inactive = higher.
// classify into 1 for active, -1 for inactive

Check the results log: what was the call for "COc1cccc(/C=N/n2c(C)n[nH]c2=O)c1" ?
-1

Entry to check: "Cc1ccc(S(=O)(=O)Nn2c(-c3ccccc3)c(C#N)c(-c3ccc(Cl)cc3)c(C#N)c2=O)cc1"
-1

Entry to check: "Cc1ccc(S(=O)(=O)N2C[C@](O)(c3ccccc3)[C@H]2C)cc1"
-1

Entry to check: "O=C(/C=C/c1ccc(OCc2ccccc2)cc1)NCc1ccc(C(=O)NCCc2c[nH]c3ccccc23)cc1"
-1

Entry to check: c1ccc(C2=NC3OC2c2ccccc23)cc1 (centres undefined)
-1

Entry to check: "COC(=O)c1cc(-c2cccn2C)c2c(c1C(=O)OC)c1ccccc1n2C"
-1

Entry to check: "CCOC(=O)/C=C(/C(=O)OCC)n1cnc2c(=O)[nH]c(NC(C)=O)nc21"
-1

Entry to check: O=C(CC(C(=O)c1ccco1)c1ccco1)c1ccco1 (centres undefined)
-1

Entry to check: "Nc1ccc(C(=O)N2CCC[C@H]2CO)c(N)c1"
-1

Entry to check: "COC(=O)c1ccccc1Nc1nc(-c2cccs2)nc2cc(OC)c(OC)cc12"
-1

Entry to check: "COC(=O)C(CCS(=O)(=O)CC(=O)C(=O)Nc1cccc(C(C)=O)c1)C(=O)OC"
-1

Entry to check: "O=C(N/N=C/c1cc(Br)cc(Br)c1O)c1ccccc1O"
1

Entry to check: CC(C)N(C(=O)C12C3C4C5C3C1(C(=O)N(C(C)C)C(C)C)C5C42)C(C)C (centres undefined)
-1

Entry to check: COc1ccc(C(C#N)NC23CC4CC(CC(C4)C2)C3)cc1 (centres undefined)
-1

Entry to check: "O/N=N/c1ccc(-c2ccccc2)cn1"
1

Entry to check: "CCOc1ccc(/C(C=O)=C(\Cl)c2ccc(OC)cc2)cc1"
-1

Entry to check: CCc1cccc(C(C)C)c1NC(=O)C(=O)C(C(=O)C(=O)OC)c1nc2ccccc2nc1O (centres undefined)
-1

Entry to check: "C/C(=N\NC(N)=S)c1ccc(C2CCCCC2)cc1"
-1

Entry to check: "O=C(/C=C/c1cccs1)c1ccsc1"
-1

Entry to check: "CC(C)(C)OC(=O)N1CCc2[nH][nH]c(=O)c2C1"
-1

Entry to check: C[C@H]1CC[P+](Cc2ccccc2)(c2ccccc2)C1 (some centres undefined)
-1

Entry to check: "COC(=O)c1c[nH]c(=O)[nH]c1=O"
-1

Entry to check: CC(C)=CCC/C(C)=C/CCC1(C)C2COC(=O)C21 (centres undefined)
-1

Entry to check: COc1nc(C#CCC(C)O)nc(OC)n1 (centres undefined)
-1

Entry to check: "CC(=O)Nc1ccc(-c2cc(C(=O)O)c3cc4ccccc4cc3n2)cc1"
-1

Entry to check: "C=C1[C@H](OC(C)=O)[C@H]2[C@@H](OC(C)=O)[C@@H](C)C[C@]2(C)C(=O)[C@H](C)/C=C/C(C)(C)C(=O)[C@H](OCC(C)C)[C@H]1OC(C)=O"
-1

Entry to check: "C[n+]1c(-c2ccc(/C=N\N3CCN(/N=C/c4ccc(-c5cn6ccsc6[n+]5C)cc4)CC3)cc2)cn2ccsc21"
-1

Entry to check: "CN(C)c1ccc(C=C2C(=O)N(c3ccccc3)N(c3ccccc3)C2=O)cc1"
-1

Entry to check: "OCCOCn1nncc1Cn1ncc2c(SCc3ccccc3)ncnc21"
-1

Entry to check: N#CC(C#N)=C1NC(=O)C(c2ccccc2)C(=O)N1 (centres undefined)
-1

Entry to check: COc1cc2c(cc1O)CCN[C@@]21CS[C@H]2c3c(OC(C)=O)c(C)c4c(c3C(COC1=O)N1C2C2c3c(cc(C)c(OC)c3O)CC([C@@H]1O)N2C)OCO4 (some centres undefined)
1

Entry to check: "CC(=O)c1cc2c(s1)C(=O)c1ccsc1C2=O"
1

Entry to check: "N#CN=C(NCCO)NCCO"
-1

Entry to check: "O=S(=O)(O)n1ccnc1"
-1

Entry to check: C=C1C(O)C2OC(=O)C(=C)C2C(OC(=O)/C(C)=C/C)CC2(C)OC2C2OC12 (centres undefined)
1

Entry to check: C[n+]1cc(C(O)c2ccc3c(c2)OCO3)c2ccccc2c1 (centres undefined)
-1

Entry to check: N/N=C1\C(=O)N(C2CCCCC2)C(=O)C1C(=O)NC1CCCCC1 (centres undefined)
-1

Entry to check: CCOC(=O)CC(C)C1(C=O)CCCCC1=O (centres undefined)
-1

Entry to check: "COCCCNc1nc(N)c(C#N)c(C#N)c1C#N"
-1

Entry to check: Cc1ccc(N2C(=O)C3CSCN3C2=O)cc1 (centres undefined)
-1

Entry to check: CC(=O)OC1CC2(C)C(OC(C)=O)CC1C2(C)C (centres undefined)
-1

Entry to check: "O=S(=O)(c1ccccc1)c1ccc(/N=N/O)nc1"
-1

Entry to check: CCCC(=O)N[C@H]1C2C3CC4C5CC(C42)C1(C)C53 (some centres undefined)
-1

Entry to check: "O=C(/C=C/c1ccccc1Cl)c1ccc(Cl)c(Cl)c1"
-1

---

Test system: MOLT-4
experiment_summary: NCI tumour cell line growth inhibition, 48 h
Calls of active or inactive are those of the source. Rule as the data show it: active = GI50 up to about 1.1 µM and inactive = higher.
measured_parameter: GI50

Any idea what its GI50 is? The compound is "O=C(O)CCC(=O)Oc1ccc(O)c2c1CCCC2=O"
> 100 µM (inactive)

Entry to check: "Cc1ccc(Nc2nc3c(s2)C(=O)c2ccccc2C3=O)c(C)c1"
3.94 µM (inactive)

Entry to check: COC1=CC(=O)[C@H]2[C@H](C)C(c3ccccc3)[C@@]2(C)C1=O (some centres undefined)
> 100 µM (inactive)

Entry to check: COC(=O)c1cccc(C)c1C1CN=NC12Cc1c(ccc(C)c1C)C2=O (centres undefined)
23.6 µM (inactive)

Entry to check: CC1(C)OCC([C@H]2CC23SCCCS3)O1 (some centres undefined)
> 100 µM (inactive)

Entry to check: Cc1[nH]c2ccccc2c1C(=O)CC1(O)C(=O)Nc2ccccc21 (centres undefined)
> 100 µM (inactive)

Entry to check: "CC1CCOc2ccc(cc2)/C=N\c2ccc(cc2)-c2ccc(cc2)/N=C\c2ccc(cc2)OCC1"
> 100 µM (inactive)

Entry to check: CCCCCCCCCCCCCCCC(=O)OCC1CCCN2CCCCC12 (centres undefined)
> 100 µM (inactive)

Entry to check: Cc1ccc(S(=O)(=O)NC2C(=O)c3ccccc3C(=O)C2n2ccnc2)cc1 (centres undefined)
25.7 µM (inactive)
